# ASSAY_PROCEDURE: yeast display, Sf9 membrane polyspecificity reagent, FACS + sequencing; frameworks hold sequencing errors
MEASUREMENT_NAME: polyreactivity (PSR sort gate)

Look over these answered cases.
QVQLVESGEGLVQARGSLRLSCAASGYTFLGYAMGWYRQAPGKERELVAAINRSGSSTYYADSVKGRFTISRDNAKNTVYLQMNSLKPEDTAVYYCNARSGNRYGPRYDYWGQGTKVTVSS; high polyreactivity
QVQLVESGGGLVQAGGSLRLSCAASGFTFDSYAMGWYRQAPGTERELVASISSSGSTNYADSVKGRFTISRDNAKNTVYLQMNSLKPEDTAVYYCAAESRYPFIYEYWGQGTQVTVSS; low polyreactivity
QVQLVESGGGLVQAGGILRLSCAASGFIFAPNAMGWYRQPPGKERELVAAISASGGSTYYADSVKGRFTISRDNAKNTVYLQMNSLKPEDTAVYYCAADRTFSSFPEYNYWGQGTQVTVSS; low polyreactivity
QVQLVESGGGLVQAGGSLRISCAASGSTFDPNAMGWYRQAPGKERELVAVIDSGDGTTYYADSVKGRFTISRDIAKNTVSFQMISQKREDTAVYYCAVDESTSYYDDHEDYWGQRTQVTVSS; low polyreactivity
QVQLVESGGGLVQAGGSLRLSCAASGRIFYSYVMGWYRQAPGKERELVAAIRWGGGSTYYADSVKGRFTISPDNPKNTVYLQMNSLKPEDTAVYYCAAAYNWRKYDYWGQGTQVTVSS; high polyreactivity

Field: polyreactivity (PSR sort gate). Fill in for each record below.
1. QVQLQESGGGLVQAGGSLRLSCAASGNIFEADIMGWYHQAHGKERELVASITDGGSTNYADSVKGRFNIKRDNAKNIVYLQMNSLKPEDTAVYYCAAIAYPDIATYFDYDSDYFYWGQGTQVTVSS
2. QVQLVESGGGLVQAGGSLRLSCAASGRILCGNTMGWYRQAPGKERELVAAISWNGGGTYYADSVKGRFTISRDNAKNTVYLQMNSLKPEDTAVYYCAAYKEPYYEEYGYWGQGTQVTVSS
3. QVQLVESGGGLVQAGGSLRLSCAASGIICDYNAMGWYRQAPGKERELVAAITSTDNTNYADSVKGRFTISRDNAKNTVYLQMNSLKPEDTAVYSCNTDYWLSVVYAMDYWGQGTQVTVSS
4. QVQLVESGGGLVQAGGSLRLSCAASGSIFDIYAMGGYRQAPGKERELVAGITRDDGSTYYADSVKGRFTISRDNAKNTVYLQMNSLNPEDTAVYYCNRPGDYPDYVPGYYYWGQGTQVTVSS
5. QVQLVESGVGVVQAGGSLRLSCAASGRIFYGYAMGWYRQAPGKERELVAAISRGGTRTFYADSVKGRFTISRDNAKNTVYVQMNSLKPEDTAVYYCAARKRDFYSGYEYYYWGQGTQVTVSS
6. QVQLEESGGGLVQAGGSLLLSCAASGLIFYHNAMGWYIQAPGKERELVAAITASGGSTYYADSVKGRFTISRDNANNTVYLQIISLKTEDTAVYYCAADGPLDSDLDYWRQGTQVTVSS

["high polyreactivity", "low polyreactivity", "low polyreactivity", "low polyreactivity", "high polyreactivity", "low polyreactivity"]
